# ASSAY_PROTOCOL: DPPH˙ radical scavenging assay
# Assay type: biochemical
# COND: 5 µg/mL
% of DPPH˙ Scavenged reference
Dear colleague, please return just the value in %, with no unit written.

Look over these answered cases.
INSERT INTO results (molecule, measurement_kind, reported_value) VALUES
  ('Cc1c(C)c2c(c(C)c1O)CCC(C)(C(=O)O)O2 (stereo not shown) [Trolox, reference compound]', '% of DPPH˙ Scavenged', 53.67),
  ('Cc1csc(N/N=C/c2ccc(O)cc2O)n1.Cl', '% of DPPH˙ Scavenged', 87.08);

Query (molecule): Br.C/C(=N\Nc1nc(-c2ccccc2)cs1)c1ccc(O)cc1O ; field requested: % of DPPH˙ Scavenged
38.13

Query: % of DPPH˙ Scavenged; subject: O=C1O[C@H]([C@@H](O)CO)C(O)=C1O [Ascorbic acid, reference compound]
80.28

* * *

Each entry below carries its recorded Eox (V).
# ASSAY_PROTOCOL: DPPH˙ radical scavenging by cyclic voltammetry
# COND: compound alone; 3rd Eox column
Field format: number, assumed V, no unit text.

INSERT INTO assay_data (smiles_notation, measurement_kind, reported_value) VALUES
  ('C/C(=N\Nc1nc(-c2ccc(O)c(O)c2)cs1)c1ccc(O)cc1O.Cl', 'Eox (V)', 0.459),
  ('Cl.Oc1ccc(/C=N/Nc2nc(-c3ccc(O)c(O)c3)cs2)c(O)c1', 'Eox (V)', 0.47),
  ('C/C(=N\Nc1nc(C)cs1)c1ccc(O)cc1O', 'Eox (V)', 0.598),
  ('Br.C/C(=N\Nc1nc(-c2ccc(O)c(C(N)=O)c2)cs1)c1ccc(O)cc1O', 'Eox (V)', 0.493);

Switching to the query record.
Please give the measured Eox (V) for this molecule: Br.C/C(=N\Nc1nc(-c2ccccc2)cs1)c1ccc(O)cc1O
0.565

* * *

Readings of Iox (μA) for the listed compounds
# ASSAY_PROTOCOL: DPPH˙ radical scavenging by cyclic voltammetry
# COND: compound alone; 3rd Iox column
Provide the reading as a plain figure in μA.

Below are worked cases with known answers.
INSERT INTO assay_data (compound, reported_value) VALUES
  ('Br.C/C(=N\Nc1nc(-c2ccccc2)cs1)c1ccc(O)cc1O [Compound 6a]', 4.37),
  ('Cl.Oc1ccc(/C=N/Nc2nc(-c3ccc(O)c(O)c3)cs2)c(O)c1 [Compound 8b]', 29.61),
  ('C/C(=N\Nc1nc(C)cs1)c1ccc(O)cc1O [Compound 5a]', 20.51),
  ('C/C(=N\Nc1nc(-c2ccc(O)c(O)c2)cs1)c1ccc(O)cc1O.Cl [Compound 8a]', 22.39);

Turning to the following compound.
// Iox (μA) lookup, key: Br.C/C(=N\Nc1nc(-c2ccc(O)c(C(N)=O)c2)cs1)c1ccc(O)cc1O [Compound 7a]
3.95

* * *

# ASSAY_PROTOCOL: Cyclic voltammetry of the compounds on graphite-based SPE
# Type: physicochemical
# COND: 3rd oxidation peak; CV, 0.1 M HClO4, graphite-based SPE
Assign class by Eox (V): not lower than 0.6 V means label 1; lower than 0.6 V means label 0.

INSERT INTO assay_data (compound, cat) VALUES
  ('Br.NC(=O)c1cc(-c2csc(N/N=C/c3ccc(O)cc3O)n2)ccc1O [Compound 7b]', 'label 0');

Textbook exercise: given the entry Br.C/C(=N\Nc1nc(-c2ccccc2)cs1)c1ccc(O)cc1O [Compound 6a] , state whether its Eox (V) is greater than or equal to 0.6 V.
label 1

Test whether the compound Br.C/C(=N\Nc1nc(-c2ccc(O)c(C(N)=O)c2)cs1)c1ccc(O)cc1O [Compound 7a] records Eox (V) of 0.6 V or higher.
label 0

Reported Eox (V) at or above 0.6 V? Cc1csc(N/N=C/c2ccc(O)cc2O)n1.Cl [Compound 5b]
label 1

Could you tell me if the measured Eox (V) of C/C(=N\Nc1nc(-c2ccc(O)c(O)c2)cs1)c1ccc(O)cc1O.Cl [Compound 8a] reaches 0.6 V or more?
label 0

Given the entry C/C(=N\Nc1nc(C)cs1)c1ccc(O)cc1O [Compound 5a] , answer whether its Eox (V) meets or surpasses 0.6 V.
label 1
